molecular target: T1, human SIRPγ-His monomer protein (human, UniProt Q9P1W8 29-360); assay: BLI Octet, antibody on AHC, global 1:2 model
T1 construct: also called hSIRPγ
T1 sequence (Q9P1W8 29-360 limits assumed): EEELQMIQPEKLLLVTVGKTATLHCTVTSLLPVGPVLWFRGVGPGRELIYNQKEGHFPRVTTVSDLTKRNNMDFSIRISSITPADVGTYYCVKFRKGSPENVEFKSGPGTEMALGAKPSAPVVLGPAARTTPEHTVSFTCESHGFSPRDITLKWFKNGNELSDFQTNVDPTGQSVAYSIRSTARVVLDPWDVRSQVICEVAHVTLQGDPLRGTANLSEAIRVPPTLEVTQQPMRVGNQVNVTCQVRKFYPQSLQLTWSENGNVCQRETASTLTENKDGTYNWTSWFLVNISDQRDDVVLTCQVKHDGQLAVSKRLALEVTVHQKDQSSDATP
Measured Kd of individual entries

[
  {
    "BINDER": "Antibody 89 (antibody, V domains shown) VH: QVQLVQSGAEVKKPGASVKVSCKASGGTFSSYAISWVRQAPGQGLEWMGIINPSSSSTGYAQKFQGRVTMTRDTSTSTVYMELSSLRSEDTAVYYCARAGYYDSSGYYYSPYYGMDVWGQGTTVTVSS VL: EIVMTQSPATLSVSPGERATLSCRASQSISGSYLAWYQQKPGQAPRLLIYGASTRATGIPARFSGSGSGTEFTLTISSLQSEDFAVYYCQQYGSFPFTFGPGTKVDIK",
    "Kd (nM)": 297
  },
  {
    "BINDER": "Antibody 97 (antibody, V domains shown) VH: QVQLVQSGAEVKKPGASVKVSCKASGHTFNNNYIHWVRQAPGQGLEWMGIINPSGGSTSYAQKFQGRVTMTRDTSTSTVYMELSSLRSEDTAVYYCARQIQDYGYYYYGMDVWGQGTTVTVSS VL: EIVMTQSPATLSVSPGERATLSCRASQSVSKYLAWYQQKPGQAPRLLIYAISARAAGIPARFSGSGSGTEFTLTISSLQSEDFAVYYCQQYYSSPPTFGQGTKVEIK",
    "Kd (nM)": 362
  },
  {
    "BINDER": "Antibody 86 (antibody, V domains shown) VH: EVQLLESGGGLVQPGGSLRLSCAASGFTLGSYWMHWVRQAPGKGLEWVSLISWDGGSTYYADSVKGRFTISRDNSKNTLYLQMNSLRAEDTAVYYCAKGPWVGYSGYDLNYYYYGMDVWGQGTTVTVSS VL: DIQMTQSPSSLSASVGDRVTITCRASQDIRRALAWYQQKPGKAPKLLIYAASSLQSGVPSRFSGSGSGTDFTLTISSLQPEDFATYYCLQHNSYPPTFGQGTKLEIK",
    "Kd (nM)": 56.1
  },
  {
    "BINDER": "Antibody 95 (antibody, V domains shown) VH: QVQLVQSGAEVKKPGASVKVSCKASGYTFTSYYMHWVRQAPGQGLEWMGWMNPNSGNTGYAQKFQGRVTMTRDTSTSTVYMELSSLRSEDTAVYYCARDQMYSSYGMDVWGQGTTVTVSS VL: DIQMTQSPSSLSASVGDRVTITCRASESITNWLAWYQQKPGKAPKLLIYKASSLESGVPSRFSGSGSGTDFTLTISSLQPEDFATYYCQQSYGTPYTFGQGTKVEIK",
    "Kd (nM)": 193
  },
  {
    "BINDER": "Antibody 88 (antibody, V domains shown) VH: QVQLVQSGAEVKKPGASVKVSCKASGYTFTSHDINWVRQAPGQGLEWMGWMNANNGNAGYAQKFQGRVTMTRDTSTSTVYMELSSLRSEDTAVYYCAKDLSPSSSWSTYYYYYGMDVWGQGTMVTVSS VL: DIQMTQSPSSLSASVGDRVTITCRASQSISNLLAWYQQKPGKAPKLLIYAASSLQSGVPSRFSGSGSGTDFTLTISSLQPEDFATYYCQQSYSTPYTFGQGTKLEIK",
    "Kd (nM)": 136
  }
]
